- system: PI3K-C2α (Homo sapiens, UniProt O00443)
- Construct: made in house; host or cells: Sf9 insect cells (baculovirus, pAcGex vector)
- Sequence (O00443 148-1686): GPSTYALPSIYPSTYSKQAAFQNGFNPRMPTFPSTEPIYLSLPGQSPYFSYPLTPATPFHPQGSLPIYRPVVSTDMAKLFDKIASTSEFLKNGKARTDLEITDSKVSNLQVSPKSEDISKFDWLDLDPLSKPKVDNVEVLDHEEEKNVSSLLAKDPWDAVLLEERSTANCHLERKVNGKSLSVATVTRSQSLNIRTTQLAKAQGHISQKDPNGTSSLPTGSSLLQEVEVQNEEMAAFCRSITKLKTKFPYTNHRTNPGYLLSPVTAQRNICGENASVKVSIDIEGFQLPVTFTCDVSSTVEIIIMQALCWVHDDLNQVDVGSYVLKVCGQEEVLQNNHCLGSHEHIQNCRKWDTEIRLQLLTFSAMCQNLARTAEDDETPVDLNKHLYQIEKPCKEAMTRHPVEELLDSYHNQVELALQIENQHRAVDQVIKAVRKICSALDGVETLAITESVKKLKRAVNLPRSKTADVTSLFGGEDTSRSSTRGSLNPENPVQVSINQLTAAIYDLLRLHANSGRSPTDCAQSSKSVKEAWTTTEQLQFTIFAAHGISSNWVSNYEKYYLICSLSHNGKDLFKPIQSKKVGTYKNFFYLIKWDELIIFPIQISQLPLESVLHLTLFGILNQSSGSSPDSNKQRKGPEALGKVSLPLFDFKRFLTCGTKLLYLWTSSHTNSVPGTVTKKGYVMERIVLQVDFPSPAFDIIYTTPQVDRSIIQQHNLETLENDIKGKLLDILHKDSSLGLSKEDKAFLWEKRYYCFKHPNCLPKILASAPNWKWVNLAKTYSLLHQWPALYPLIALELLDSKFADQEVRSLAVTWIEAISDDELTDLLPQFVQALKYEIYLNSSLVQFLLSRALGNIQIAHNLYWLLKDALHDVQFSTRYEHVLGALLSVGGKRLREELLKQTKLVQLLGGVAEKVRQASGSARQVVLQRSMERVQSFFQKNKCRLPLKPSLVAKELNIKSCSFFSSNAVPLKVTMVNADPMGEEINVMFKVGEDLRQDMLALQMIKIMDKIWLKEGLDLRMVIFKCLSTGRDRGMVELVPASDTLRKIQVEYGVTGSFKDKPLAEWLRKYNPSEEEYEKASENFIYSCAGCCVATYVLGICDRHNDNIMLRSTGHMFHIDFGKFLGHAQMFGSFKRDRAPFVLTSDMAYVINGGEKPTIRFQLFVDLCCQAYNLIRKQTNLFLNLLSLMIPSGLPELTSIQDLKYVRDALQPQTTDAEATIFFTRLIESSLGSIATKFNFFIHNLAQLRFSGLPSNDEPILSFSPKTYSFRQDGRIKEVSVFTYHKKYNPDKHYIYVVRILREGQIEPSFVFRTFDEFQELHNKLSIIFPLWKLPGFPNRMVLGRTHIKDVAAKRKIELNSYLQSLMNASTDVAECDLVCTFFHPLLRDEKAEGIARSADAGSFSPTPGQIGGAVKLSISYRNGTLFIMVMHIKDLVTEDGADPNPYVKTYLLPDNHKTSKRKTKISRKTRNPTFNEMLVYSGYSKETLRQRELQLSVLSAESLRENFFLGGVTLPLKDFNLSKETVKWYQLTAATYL
- protocol.notes: PI 3-kinase lipid kinase assay with recombinant GST-PI3K-C2α, PtdIns as substrate
- Format: biochemical
- assay.conditions: Wortmannin; PtdIns substrate; FIG. 5A
pIC50: −log10 of the molar value.
measurement.type: pIC50

1) COC[C@H]1OC(=O)c2coc3c2[C@@]1(C)C1=C(C3=O)[C@@H]2CCC(=O)[C@@]2(C)C[C@H]1OC(C)=O [Wortmannin] = 6.70

----------
- system: PI3K-C2α (Homo sapiens, UniProt O00443)
- Construct: made in house; host or cells: Sf9 insect cells (baculovirus, pAcGex vector)
- protocol.notes: PI 3-kinase lipid kinase assay with recombinant GST-PI3K-C2α, PtdIns as substrate
- Format: biochemical
pIC50: −log10 of the molar value.
measurement.type: pIC50

1. O=c1cc(N2CCOCC2)oc2c(-c3ccccc3)cccc12 [LY294002] = 4.70

----------
- system: p110α (UniProt P32871)
- protocol.notes: PI 3-kinase lipid kinase assay with recombinant GST-p110α, PtdIns as substrate
- assay.conditions: read-out: IC50 of p110α lipid kinase activity, Wortmannin, FIG. 5A
measurement.type: IC50

1) COC[C@H]1OC(=O)c2coc3c2[C@@]1(C)C1=C(C3=O)[C@@H]2CCC(=O)[C@@]2(C)C[C@H]1OC(C)=O = 3 nM
